In this section we review reported Kd values for a set of binders.
Molecular target: T1, PUF4 RNA-binding domain (Saccharomyces cerevisiae, UniProt P25339 537-888)
T1 sequence: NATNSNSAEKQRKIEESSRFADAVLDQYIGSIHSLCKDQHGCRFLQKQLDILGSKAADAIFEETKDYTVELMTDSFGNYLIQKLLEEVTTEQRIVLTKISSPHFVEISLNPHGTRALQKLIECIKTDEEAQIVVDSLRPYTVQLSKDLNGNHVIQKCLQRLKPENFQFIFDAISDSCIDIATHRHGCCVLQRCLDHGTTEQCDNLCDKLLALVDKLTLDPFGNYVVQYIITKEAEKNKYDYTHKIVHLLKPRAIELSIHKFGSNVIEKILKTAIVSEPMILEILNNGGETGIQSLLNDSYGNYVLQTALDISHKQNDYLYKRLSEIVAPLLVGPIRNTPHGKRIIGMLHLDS
Experiment: Mg; RNA-MaP; 20 mM Na-HEPES pH 7.4, 30 mM KOAc, 0.75 mM MgCl2, 0.1% Tween-20, 5% glycerol, 0.1 mg/mL BSA, 2 mM DTT; 25 C; 0.0125-409.6 nM protein
Conditions: tags: N-His6-TEV cleaved; C-SNAP kept, Cy3B-labelled; label: tethered on chip by stalled RNA polymerase
OUTCOME_MEASURE: Kd (nM)

| BINDER | OUTCOME_MEASURE | MODIFIER_SIGN | READOUT_VALUE |
| --- | --- | --- | --- |
| UCUCUUAAACACUAUUAGCUCUCUU (ssRNA) [Id_ii_S1_P4E.4_K4.3_C4.2_[C-2A]_[T-1A]_H4.3_A4.1_F4.1_T4.2_[T11C]] | Kd | > | 2300 |
| Id_ii_S2_P4E.3_K4.2_C4.2_[C-2T]_[T-1C]_H4.2_A4.1_F4.1_T4.2_[G10C] (ssRNA) RNA: UUUGAUUAAUAUGAUAUCGUUCUUUCUUCUAUAUAUUACUUUCUUUCUCGAUAUCAUAUUAAUCUUU | Kd | = | 6.91 |
| Ic_S4_P5E.1_K5.1_C5.1_H5.1_A5.1_[T5A]_[A7T]_F5.1_[T9G]_[A10C]_T5.1 (ssRNA) RNA: UUUGACAACUGAUCGUUCUUUCUUGUAAUUUGCUUCUUUCUCGAUCAGUUGUCUUU | Kd | = | 46.7 |
| Id_ii_S2_P4E.3_K4.2_C4.2_[C-2T]_H4.2_A4.1_F4.1_T4.2 (ssRNA) RNA: UUUGAUUAAUAUGAUAUCGUUCUUUCUUUUAUAUAUUAGUUUCUUUCUCGAUAUCAUAUUAAUCUUU | Kd | = | 9.27 |
| UCUCUUUGUAAAUUUUUCUCUU (ssRNA) [Ic_S1_P5E.1_K5.1_C5.1_H5.1_A5.1_[T5A]_[T6A]_[A7T]_F5.1_[A10T]_T5.1] | Kd | = | 22.4 |
| UCUCUUUGUAUAUUACUCUCUCUU (ssRNA) [Ie_S1_P4E.1_K4.1_C4.1_H4.1_A4.1_F4.1_[+9CTC]_T4.1] | Kd | = | 1.09 |
| UCUCUUUGUAUUUCGUUCUCUU (ssRNA) [Ic_S1_P5E.1_K5.1_C5.1_H5.1_A5.1_[A7T]_F5.1_[T8C]_[T9G]_[A10T]_T5.1] | Kd | = | 370 |
| UCUCUUUGUACAUCUCUCUU (ssRNA) [Ib_S1_P3E.1_K3.1_C3.1_H3.1_A3.1_[T5C]_F3.1_[A8C]_T3.1] | Kd | = | 15.9 |
| Id_ii_S2_P4E.4_K4.3_C4.2_[T-1A]_H4.3_A4.1_F4.1_T4.2_[G10C]_[T11C] (ssRNA) RNA: UUUGAUUAAUAUGAUAUCGUUCUUUCUCAACACUAUUACCUUCUUUCUCGAUAUCAUAUUAAUCUUU | Kd | > | 2300 |
| UCUCUUUGUCUCAUAUUAUCUCUU (ssRNA) [Ie_S1_P4E.1_K4.1_C4.1_H4.1_[+3CTC]_A4.1_F4.1_T4.1] | Kd | = | 37.3 |
| ACAAACACACACUAUUACUACAAAC (ssRNA) [Id_ii_S3_P4E.4_K4.3_C4.2_[C-2A]_[T-1C]_H4.3_A4.1_F4.1_T4.2_[G10C]] | Kd | > | 2300 |
| UCUCUUCUUGUAUAUAUGUCUCUU (ssRNA) [Id_ii_S1_P3E.2_K3.1_C3.2_H3.1_A3.1_F3.1_T3.2_[A10G]] | Kd | = | 12.2 |
| Id_ii_S2_P5E.2_K5.1_C5.2_[C-2G]_[T-1C]_H5.1_A5.1_F5.1_T5.2_[A12T] (ssRNA) RNA: UUUGAUUAAUAUGAUAUCGUUCUUUCUGCUGUAUUAUUAUUUUCUUUCUCGAUAUCAUAUUAAUCUUU | Kd | = | 3.07 |
| Ic_S4_P5E.1_K5.1_C5.1_H5.1_A5.1_[T6A]_[A7C]_F5.1_[T8C]_[T9A]_[A10T]_T5.1 (ssRNA) RNA: UUUGACAACUGAUCGUUCUUUCUUGUAUACCAUUUCUUUCUCGAUCAGUUGUCUUU | Kd | = | 15.4 |
| Id_i_S2_P3E.5_K3.1_C3.3_[T-3C]_[C-2T]_[T-1C]_H3.1_A3.1_F3.1_T3.2 (ssRNA) RNA: UUUGAUUAAUAUGAUAUCGUUCUUUCUCUCUGUAUAUAUAUUCUUUCUCGAUAUCAUAUUAAUCUUU | Kd | = | 0.917 |
| Ie_S2_P5E.1_K5.1_C5.1_H5.1_A5.1_F5.1_[+9TT]_T5.1 (ssRNA) RNA: UUUGAUUAAUAUGAUAUCGUUCUUUCUUGUAUUAUUUUAUUCUUUCUCGAUAUCAUAUUAAUCUUU | Kd | = | 8.73 |
| Ie_S4_P5E.1_K5.1_C5.1_H5.1_A5.1_F5.1_[+8TTCC]_T5.1 (ssRNA) RNA: UUUGACAACUGAUCGUUCUUUCUUGUAUUAUUUCCUAUUCUUUCUCGAUCAGUUGUCUUU | Kd | = | 21.1 |
| UCUCUUUUCUCGUAUAUUAUCUCUU (ssRNA) [Ie_S1_P4E.1_K4.1_C4.1_H4.1_[+1TCTC]_A4.1_F4.1_T4.1] | Kd | = | 19.7 |
| Id_ii_S2_P4E.3_K4.2_C4.2_[C-2T]_[T-1G]_H4.2_A4.1_F4.1_T4.2 (ssRNA) RNA: UUUGAUUAAUAUGAUAUCGUUCUUUCUUGUAUAUAUUAGUUUCUUUCUCGAUAUCAUAUUAAUCUUU | Kd | = | 1.86 |
| UCUCUUUCUUGUAUUAUUAUUUCUCUU (ssRNA) [Id_iii_S1_P5E.5_K5.1_C5.3_H5.1_A5.1_F5.1_T5.2_[A12T]] | Kd | = | 4.34 |
| UCUCUUACACACUAUAGUUCUCUU (ssRNA) [Id_ii_S1_P3E.4_K3.3_C3.2_[C-2A]_[T-1C]_H3.3_A3.1_F3.1_T3.2_[T9G]_[A10T]] | Kd | > | 2300 |
| Id_ii_S2_P4E.2_K4.1_C4.2_[C-2A]_[T-1G]_H4.1_A4.1_F4.1_T4.2_[G10A] (ssRNA) RNA: UUUGAUUAAUAUGAUAUCGUUCUUUCUAGUGUAUAUUAAUUUCUUUCUCGAUAUCAUAUUAAUCUUU | Kd | = | 0.973 |
| Ib_S4_P5E.1_K5.1_C5.1_H5.1_[A4T]_A5.1_F5.1_[A10T]_T5.1 (ssRNA) RNA: UUUGACAACUGAUCGUUCUUUCUUGUUUUAUUUUUCUUUCUCGAUCAGUUGUCUUU | Kd | = | 119 |
| UCUCUUUGUACCCAAUCUCUU (ssRNA) [Ic_S1_P4E.1_K4.1_C4.1_H4.1_A4.1_[T5C]_[A6C]_[T7C]_F4.1_[T8A]_T4.1] | Kd | = | 833 |
